Origin of the recorded values: the supplement of paper PMC10567573

B1: CPXM2 (parent)
chain: EILGCPLPDPNNYYHRRNEMTTTD

- Variants of: B1
- protocol: protein stability index of a GFP-peptide fusion (GPS, HEK-293T) (PSI 1-6); higher = more stable;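 also: lentivirally expressed fusions sorted by FACS into six bins by GFP to DsRed ratio, PSI derived from sequencing read proportions per bin multiplied by bin number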
- condition_label: c terminus: a fixed tail appended
The reader will find reported protein stability index values listed item by item below.
// return just the number, without any unit appended

Solved cases below.
[[record]]
residue_change = "R17N"
reported_metric = "protein stability index"
readout_value = 4.04

[[record]]
residue_change = "Y14G"
reported_metric = "protein stability index"
readout_value = 4.13

[[record]]
residue_change = "L3H"
reported_metric = "protein stability index"
readout_value = 4.16

[[record]]
residue_change = "R17D"
reported_metric = "protein stability index"
readout_value = 4.64

[[record]]
residue_change = "D24L"
reported_metric = "protein stability index"
readout_value = 2.46


For the variant `N11P` , what protein stability index is on record?
3.84

Need protein stability index, item `P6E`
3.58

I have this variant here, `G4L` , and I need its recorded protein stability index.
2.69

Endpoint output: protein stability index of `N18F` . Value?
2.41

Fill in: protein stability index of `L3S` is ___
4.41

// returns reported protein stability index for input `N12A`
3.67

Report protein stability index for `Y13W` please.
2.9

Value lookup for protein stability index; key = `M20R`
3.57
